System: PC-3
experiment.summary: Cytotoxicity against human PC3 cells after 48 hrs by sulforhodamine B assay
Assay type: functional, cell-based
test.parameters: PC-3, 48 h
measure.name: pIC50
pIC50 here: minus log base 10 of the concentration, concentration in moles per litre.

[in] Using the record for COC1=CC(=O)C(CCC(=O)c2ccc(OC)c(OC)c2)=C(OC)C1=O , report its pIC50.
[out] 5.33
